Test system: OCI-M2 AZA-R cells
procedure-text: cells
cond: Homo sapiens, OCI-M2
readout: IC50 (µM)
Give the value in µM but do not write µM after it.

IC50 lookup needed for Nc1ncn([C@@H]2O[C@H](CO)[C@@H](O)[C@H]2O)c(=O)n1 , thanks.
6.2

New cases:
IC50 lookup needed for Nc1ncn([C@H]2C[C@H](O)[C@@H](CO)O2)c(=O)n1 , thanks.
0.0476

---

Tested on: MOLM13 AZA-R cell-line
procedure-text: Cell viability of MOLM13-R [Resistant] cells
Format: cell-based
cond: Homo sapiens, MOLM-13; MOLM13 AZA-R; FIG. 11; black line AZA alone vs red line with SFN+RES+CUR (5 μL each) preincubation; read-out: IC50 of azacitidine
readout: IC50 (nM)
Give the value in nM but do not write nM after it.

IC50 lookup needed for Nc1ncn([C@@H]2O[C@H](CO)[C@@H](O)[C@H]2O)c(=O)n1 , thanks.
2360

Recorded values, source patent US11478444B2.
